Biological target: rat P2X3 receptor (Rattus norvegicus, UniProt P49654)
Sequence (P49654 whole entry): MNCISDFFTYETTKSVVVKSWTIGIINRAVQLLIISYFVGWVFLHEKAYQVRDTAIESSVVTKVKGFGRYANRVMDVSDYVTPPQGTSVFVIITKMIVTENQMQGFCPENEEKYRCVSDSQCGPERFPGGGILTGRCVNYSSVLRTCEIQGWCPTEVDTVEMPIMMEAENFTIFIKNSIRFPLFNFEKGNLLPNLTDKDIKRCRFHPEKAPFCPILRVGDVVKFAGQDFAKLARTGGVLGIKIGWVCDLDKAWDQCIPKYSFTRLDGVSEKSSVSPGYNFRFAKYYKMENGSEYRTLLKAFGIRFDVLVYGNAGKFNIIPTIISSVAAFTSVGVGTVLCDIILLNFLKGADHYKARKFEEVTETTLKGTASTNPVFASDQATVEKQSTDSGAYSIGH
Assay: P2X3 FLIPR (Fluorometric Imaging Plate Reader) assay
Conditions: CHO-K1 cells transfected with rat P2X3, agonist α,β-meATP 1 μM
readout.kind: IC50

// fetch IC50 given entry Cc1ccc(-c2cc(C(=O)N[C@@H](C)CO)cc(-n3nnnc3CC(C)C)c2)cc1 ~1.58 nM
